- measured target: non-muscle actin
- procedure summary: F-actin co-sedimentation, peptide fluorescence in pellet over total, hyperbolic fit
No end group written: not given here. fluorescein = fluorescein tag at the N-terminus
parameter measured: Kd (µM)

1. fluorescein-MGVADLIKKFESISKEE (also called fluorescein conjugated Lifeact; F-Lifeact peptide) [F-Lifeact (chemically synthesized 17aa Lifeact peptide tagged with fluorescein at its N-terminus)] ... 5.4
